# test: NCI Yeast Anticancer Drug Screen. Data for the rad18 strain (AID 177)
# recordedConditions: S. cerevisiae rad18 mutant growth inhibition; at 100.0 µM; stronger effect = higher value
The panel holds about 79,000 compounds, 15% with a hit somewhere; the sample as a whole holds those more often.
# maps each entry to its growth inhibition

>  <compound>
O=C1c2ccc(O)cc2C(=O)c2c(O)ccc(O)c21

>  <growth inhibition / %>
89

$$$$
>  <compound>
COC(=O)C1(N2CCOCC2)CCC([C@@H](c2ccccc2)C(C)[N+](=O)[O-])C1 (stereo partly specified)

>  <growth inhibition / %>
82

$$$$
>  <compound>
O=C(O)CN(CCNC(=O)OCC1c2ccccc2-c2ccccc21)CCNC(=O)OCC1c2ccccc2-c2ccccc21

>  <growth inhibition / %>
94

$$$$
>  <compound>
O=C(O)[C@H]1[C@@H](C2CCCCC2)O[C@@H](C2CCCCC2)O[C@H]1C(F)(F)F

>  <growth inhibition / %>
-2

$$$$
>  <compound>
CN(C)CCNC(=O)c1cccc2nc3c4ccccc4c4ccccc4c3nc12

>  <growth inhibition / %>
93

$$$$
>  <compound>
O=C(/C(=C/c1ccccc1)CBr)c1ccccc1

>  <growth inhibition / %>
99

$$$$
>  <compound>
Cc1ccccc1C1=C(CC(=O)O)c2ccccc2CC1C (stereo unspecified)

>  <growth inhibition / %>
99

$$$$
>  <compound>
NCC(O)CSCc1ccc(Cl)cc1 (stereo unspecified)

>  <growth inhibition / %>
11

$$$$
>  <compound>
COc1ccc2c(C)cc(N/N=C/c3sccc3C)nc2c1

>  <growth inhibition / %>
70

$$$$
>  <compound>
Cc1ccc(SSc2ccc(C)cc2[N+](=O)[O-])c([N+](=O)[O-])c1

>  <growth inhibition / %>
83

$$$$
>  <compound>
CN(C)CCn1c2ccccc2c2nc3cc4ccccc4cc3nc21

>  <growth inhibition / %>
98

$$$$
